All values here come from PubChem BioAssay (NCATS).

# EXPERIMENTAL DETAILS: Quantitative High-Throughput drug screen in 47 multiple myeloma cell lines against the NCATS MIPE library collection: AMO1_DSMZ cell viability assay (AID 1918927; also: nearly all actives have a fitted effect of over 30% in size)
# CONDITION LABEL: AMO1 myeloma cells viability, CellTiter-Glo ATP luminescence, 48 h; series mostly up to 45.8 µM
Inconclusive results are not listed. The source made the active and inactive calls. Calls follow the shape of the dose curve; as a rule, active = well fitted cell-killing curve with a large enough effect; inconclusive = small, poorly fitted or top-dose-only effect, or effect the other way; inactive = no such curve, though single readings can be large or run the other way.
Classes used: active, inactive

1) O=C(NC1CCNCC1)c1[nH]ncc1NC(=O)c1c(Cl)cccc1Cl : active
2) Cc1cc(C(=O)N2CCN(c3cccc(Cl)c3)CC2)n(-c2ccccc2)n1 : active
3) Nc1nccc(Oc2ccc(NC(=O)c3c[nH]cc(-c4ccc(F)cc4)c3=O)cc2F)c1Cl : active
4) C=CCn1c(=O)c2cnc(Nc3ccc(N4CCN(C)CC4)cc3)nc2n1-c1cccc(C(C)(C)O)n1 : active
5) CC(NCc1ccc2c(c1)nc(NC(=O)c1ccc(-c3cn[nH]c3)s1)n2CC(C)(C)O)C(C)(C)C (centres undefined) : active
6) CC1(O)CC(c2nc(-c3ccc4ccc(-c5ccccc5)nc4c3)c3c(N)nccn23)C1 (centres undefined) : active
7) CC(C)CC(=O)Nc1n[nH]c2c1CN(C(=O)C1CCN(C)CC1)C2(C)C : active
8) Cc1cn(-c2cc(NC(=O)c3ccc(C)c(Nc4nccc(-c5cccnc5)n4)c3)cc(C(F)(F)F)c2)cn1 : inactive
9) O=C(c1ccc(Nc2nccc(-c3cc4ccccc4s3)n2)cc1)N1CCC(N2CCCC2)CC1 : active

---

# EXPERIMENTAL DETAILS: qHTS of pediatric cancer cell lines to identify multiple opportunities for drug repurposing: Primary screen for SJ-GBM2 cells (AID 1347091)
# CONDITION LABEL: SJ-GBM2 viability, CellTiter-Glo luminescence, 48 h; series mostly up to 46 µM
Records with an inconclusive call do not appear. Active and inactive are the calls of the source. Calls follow the shape of the dose curve; as a rule, active = well fitted cell-killing curve with a large enough effect; inconclusive = small, poorly fitted or top-dose-only effect; inactive = no such curve, though single readings can be large or run the other way.
Possible outcomes: true = active, false = inactive

1) CC(C)=CCCC(C)=CCCC(C)=CCSc1ccccc1C(=O)O : true
2) C[C@@H](Oc1cc(-n2cnc3ccc(CN4CCN(C)CC4)cc32)sc1C(N)=O)c1ccccc1C(F)(F)F : true
3) COc1cccc2c(NCc3ccccc3)nc(-n3c(N)nc4ccccc43)nc12 : true
4) Cn1c(CNc2ccc(C(=N)N)cc2)nc2cc(C(=O)N(CCC(=O)O)c3ccccn3)ccc21 : false
5) C1=CCOCc2cc(ccc2OCCN2CCCC2)Nc2nccc(n2)-c2cccc(c2)OCC1 : true
6) CC(O)C1C(=O)N2C(C(=O)O)=C(SC3CNC(C(=O)N(C)C)C3)C(C)C12 (configuration not stated) : false
7) CC(=O)OCC(=O)[C@@]1(O)[C@H](C)C[C@H]2[C@@H]3C=C(C)C4=Cc5c(cnn5-c5ccccc5)C[C@]4(C)[C@@H]3[C@@H](O)C[C@@]21C : true
8) CC(C)(O)CCc1ccc(OCc2cc(-c3cccc(OC(F)F)c3)c3ncccc3c2)cc1 : false
9) CCC[C@H](NC(=O)C(C#N)=Cc1cccc(Br)n1)c1ccccc1 : true
10) N#Cc1c(O)c2c(-c3ccc(-c4ccccc4O)cc3)csc2[nH]c1=O : false
11) Nc1ncnc2c1c(-c1cccc(OCc3ccccc3)c1)cn2C1CC(CN2CCCC2)C1 (configuration not stated) : true
12) CCN(CC)CCNC(=O)c1ccc2nc(-c3ccccc3)c(-c3ccc(CN4CCC(n5c(=O)[nH]c6ccccc65)CC4)cc3)nc2c1 : true
13) Clc1ccc2ncc(-c3cccc(NC4CNC4)n3)n2c1 : true
14) COC(=O)[C@]12CCC(C)(C)C[C@@H]1[C@@H]1C(=O)C=C3[C@@]4(C)C=C(C#N)C(=O)C(C)(C)[C@@H]4CC[C@@]3(C)[C@]1(C)CC2 : true
15) Nc1cccc(-c2cc3c(Oc4cccc(O)c4)ncnc3[nH]2)c1 : true
16) COCCOc1ccc2c(c1)ncn2-c1ccc2cccc(N3CCC(N)CC3)c2n1 : true
17) Nc1ccccc1NC(=O)c1ccc(CNC(=O)OCc2cccnc2)cc1 : true
18) CC(C)c1cc(C(=O)N2Cc3ccc(CN4CCN(C)CC4)cc3C2)c(O)cc1O : true
19) C#Cc1cccc(Nc2ncnc3cc(OC)c(OCCCCCCC(=O)NO)cc23)c1 : true
20) CCOc1ccccc1OCCNC(C)Cc1ccc(OC)c(S(N)(=O)=O)c1 (configuration not stated) : false
21) O=C(C=Cc1cccnc1)NCCCCC1CCN(C(=O)c2ccccc2)CC1 : true
22) c1nc2nc(Nc3ccc(N4CCOCC4)cc3)nc(NC3CCCCC3)c2[nH]1 : true
23) Nc1ccc(S(=O)(=O)Nc2ncccn2)cc1 : false
24) CC(C)c1nn(-c2c(Cl)cccc2Cl)c2nc(Cc3ccc(OCCO)cc3)[nH]c(=O)c12 : true
25) COc1cc2c(Oc3ccc(-c4cnc(Nc5ccc(F)cc5)n(C)c4=O)cc3F)ccnc2cc1OCCCN1CCOCC1 : true
26) CC[C@@H]1C(=O)N(C)c2cnc(Nc3ccc(C(=O)NC4CCN(C)CC4)cc3OC)nc2N1C1CCCC1 : true
27) C1Cc2[nH]nc(-c3nn[nH]n3)c2C1 : false
28) O=C(CCCCCCNC(=O)c1cnc(N(c2ccccc2)c2ccccc2)nc1)NO : true
29) CNC(=O)c1ccc(N2C(=S)N(c3cnc(C#N)c(C(F)(F)F)c3)C(=O)C23CCC3)cc1F : true
30) CC1(C)CC(=O)c2c(C(F)(F)F)nn(-c3ccc(C(N)=O)c(NC4CCC(OC(=O)CN)CC4)c3)c2C1 (configuration not stated) : true
31) Nc1ccn([C@@H]2O[C@H](CO)[C@H](O)C2(F)F)c(=O)n1 : true
32) COC(=O)Nc1ccc(-c2nc(N3CCOCC3)c3cnn(C4CCN(Cc5cccnc5)CC4)c3n2)cc1 : true
33) CC[C@H]1CN2CCc3cc(OC)c(OC)cc3[C@H]2C[C@@H]1C[C@@H]1NCCc2cc(OC)c(OC)cc21 : true
34) CN1CCC(CNc2ccc3ncc(-c4cccc(OC(F)(F)F)c4)n3n2)CC1 : true
35) Cc1ccc(S(=O)(=O)Nc2cc(Cl)ccc2C(=O)Nc2nc(-c3ccccc3)cs2)cc1 : true
36) CC1(C)CCC(c2ccc(Cl)cc2)=C(CN2CCN(c3ccc(C(=O)NS(=O)(=O)c4ccc(N[C@H](CCN5CCOCC5)CSc5ccccc5)c(S(=O)(=O)C(F)(F)F)c4)cc3)CC2)C1 : true
37) Cc1c(C)n(Cc2ccc(-c3ccccc3C(=O)O)cc2)c2ccc(C(=O)N[C@@H](C)c3ccc([N+](=O)[O-])cc3)cc12 : true

---

# EXPERIMENTAL DETAILS: qHTS of pediatric cancer cell lines to identify multiple opportunities for drug repurposing: Primary screen for BT-37 cells (AID 1347094)
# CONDITION LABEL: BT-37 viability, CellTiter-Glo luminescence, 48 h; series mostly up to 57.3 µM
Results filed as inconclusive are left out. Activity calls are given as the source filed them. Calls come from the whole dose curve; as a rule, active = well fitted cell-killing curve with a large enough effect; inconclusive = small, poorly fitted or top-dose-only effect; inactive = flat fitted curve, though single readings scatter.
Outcome codes: T = active, F = inactive

1) CN1CCN(Cc2ccc(NC(=O)Nc3ccc(Oc4cc(NC(=O)C5CC5)ncn4)cc3)cc2C(F)(F)F)CC1 : T
2) C=CC(=O)Nc1cc2c(Nc3ccc(F)c(Cl)c3)ncnc2cc1C#CC(C)(C)N1CCN(C)CC1 : T
3) CC[C@H](CO)Nc1nc(NCc2ccccc2)c2ncn(C(C)C)c2n1 : T
4) Cc1cn2c(-c3cn[nH]c3)cnc2c(Nc2ccc(C(=O)N3CCNCC3)cc2F)n1 : T
5) Nc1ncnc2c1c(-c1cnc3[nH]ccc3c1)nn2C1CCCC1 : T
6) O=C(O)c1ccc2cc(-c3ccc(O)c(C45CC6CC(CC(C6)C4)C5)c3)ccc2c1 : T
7) CN(C)c1nc(Cc2ccc(NC(=O)c3ccc4ccccc4c3)cc2)nc(Cl)c1CC(=O)O : F
8) CC(=O)Nc1nc(C)c(-c2ccc(Cl)c(S(=O)(=O)NCCO)c2)s1 : T
9) CC(C)(C)OC(=O)Nc1ccc(-c2cc(C(=O)NCCCCCCC(=O)NO)no2)cc1 : T
10) Cc1nc(Nc2n[nH]c3c2CN(C(=O)N[C@H](CN(C)C)c2ccccc2)C3(C)C)c2sccc2n1 : T
11) CC(=O)SC[C@@H](C)C(=O)N1CCC[C@H]1C(=O)N[C@@H](Cc1ccccc1)C(=O)O : F
12) Cn1c(=O)n(-c2ccc(C(C)(C)C#N)cc2)c2c3cc(-c4cnc5ccccc5c4)ccc3ncc21 : T
13) CNC(=O)c1ccccc1Nc1nc(Nc2ccc(N3CCOCC3)cc2OC)ncc1Cl : T
14) CC(=O)Nc1sc2c(c1-c1nc3ccccc3s1)CNC2 : T
15) COc1cc2ncnc(Nc3ccc(F)c(Cl)c3)c2cc1NC(=O)C=CCN1CCCCC1 : T
16) Nc1nc(Nc2ccc(S(N)(=O)=O)cc2)nn1C(=O)c1c(F)cccc1F : T
17) COC(=O)[C@]12CCC(C)(C)C[C@@H]1[C@@H]1C(=O)C=C3[C@@]4(C)C=C(C#N)C(=O)C(C)(C)[C@@H]4CC[C@@]3(C)[C@]1(C)CC2 : T
18) COC(=O)Nc1ccc(-c2nc(N3CCOCC3)c3cnn(C4CCN(Cc5cccnc5)CC4)c3n2)cc1 : T
19) OCCCNc1cc(-c2ccnc(Nc3cccc(Cl)c3)n2)ccn1 : T
